Where these numbers come from: PubChem BioAssay (NCI)

- Test system: 786-0 renal
- Protocol summary: NCI-60 one-dose screen, 48 h (100 = growth as untreated, 0 = no growth, -100 = all killed)
- Test conditions: 10 µM unless noted
Compounds without any hit were thinned out: in the full panel of roughly 83,000, 20% have a hit. Activity calls are given as the source filed them. How the source made its calls: active means growth percent below 10; inactive means the rest.
Collected growth values appear next to each entry.

For COC1=C(C)C(=O)C2=C(C1=O)C(CO)N1C(C#N)C3CC4C(C1C2N1CCOC41)N3C (stereo not drawn) the compound record lists growth as -21.9% (active)

---
For C[C@]12CC[C@H](O)CC1=CC[C@@H]1[C@@H]2CC[C@]2(C)C(=O)CC[C@@H]12 the compound record lists growth as 92.6% (inactive)

For CC[C@](O)(C(=O)O)c1cc2n(c(=O)c1CO)Cc1cc3ccccc3nc1-2 the compound record lists growth as -21.9% (active)
